pKi: −log10 of the molar value.
Below are pKi measurements against UniProtKB P31652 drawn from the literature.
endpoint: pKi

COc1ccc2[nH]cc(C3CCN(CCN4C(=O)CC(c5c[nH]c6ccccc56)C4=O)CC3)c2c1 (racemic) = 5.73

1 = COc1ccccc1-c1c(=O)n(CCCCN2CCC(c3c[nH]c4ccc(F)cc34)CC2)c(=O)n2ccccc12
2 = CCCCCn1c(=O)n(CCCCN2CCN(c3ccc(F)cc3)CC2)c2ccccc21
// compare: 1 vs 2 , metric pKi, want the smaller When you have decided, please share the label of that item. 2
(2: 6.35, 1: 7.68)

====

Please find below pKi measurements for UniProtKB P31652, combined from several publications.
pKi: −log10 of the molar value.
endpoint: pKi

Consider the worked cases shown below.
CNCCC[C@@H](c1ccc(Cl)c(Cl)c1)c1cccc2ccccc12 = 7.30
CC(=O)Nc1cccc(CN2CCN(CCOc3cccc4nc(C)ccc34)CC2)c1 = 5.90
C[C@@H]1CN(CCCN(c2ccccc2)c2ccccc2)C[C@@H](C)N1CCc1ccc(Cl)c(Cl)c1 = 5.30
CNCCC[C@@H](c1ccc(Cl)c(Cl)c1)c1cccc2[nH]ccc12 = 8.57
CN(C)CCC(Oc1ccc(C#N)cc1)c1ccc(OCCCN2CCCCC2)cc1 (stereo not given) = 8.11

P = NC(=O)c1ccc2c(c1)CCOC2CCN1CCC(c2c[nH]c3cc(F)ccc23)C1 (stereo not given)
Q = COc1ccc2[nH]cc(C3CCN(CCCCN4C(=O)CC(c5c[nH]c6ccccc56)C4=O)CC3)c2c1 (racemic)
R = FC(F)(F)c1nc2c(N3CCN([C@H]4CC[C@@H](c5c[nH]c6ccccc65)CC4)CC3)cccc2[nH]1
S = O=c1c(-c2ccccc2F)c2ccccn2c(=O)n1CCCCN1CC=C(c2c[nH]c3ccc(Br)cc23)CC1
T = COc1ccc(NC(=O)Nc2ccc(OC(CCN(C)C)c3ccccc3)cc2)cc1Cl (stereo not given)
Kindly order the items shown according to pKi, from the highest value down. Answer with the labels in sequence, matching the requested order. P, T, R, Q, S
(P: 8.68, T: 7.39, R: 6.98, Q: 6.68, S: 6.08)

1 = CCN1C(=O)COc2ccc(CN3CCN(CCOc4cccc5nc(C)ccc45)CC3)c(F)c21
2 = COc1ccc(C2CN(C)Cc3cc(OCCCN4CCN(c5nccs5)CC4)ccc32)cc1 (stereo not given)
3 = CCN(CC)c1ccc2c(-c3ccc(S(=O)(=O)NCCCCCC(=O)NCc4ccc5c(c4)C(C)(C)OC5(CCCNC)c4ccccc4)cc3S(=O)(=O)[O-])c3ccc(=[N+](CC)CC)cc-3oc2c1 (stereo not given)
Arrange the 3 entries by pKi so the values rise. Your task in answering is to list the labels in the requested order. 3, 1, 2
(3: 5.94, 1: 6.70, 2: 8.57)

====

Assembled from different publications: pKi for Sodium-dependent serotonin transporter (Rattus norvegicus).
pKi: −log10 of the molar value.
endpoint: pKi

Example entries and their recorded answers appear below.
Fc1ccc2[nH]cc([C@H]3CC[C@H](NCCOc4cccc5c4OCCO5)CC3)c2c1 = 8.98
CCCNC(=O)c1ccc(F)c2c1CC(N(CCCc1c[nH]c3ccc(F)cc13)C1CCC1)CO2 (configuration not stated) = 8.10
NC(=O)c1ccc2c(c1)CCOC2CCN1CCC(c2nsc3cc(F)ccc23)CC1 (configuration not stated) = 7.28
Fc1ccc(C(Oc2ccc(C(F)(F)F)cc2)C2CCCNC2)cc1 (configuration not stated) = 7.58

1 = Cc1ccc(-c2c(=O)n(CCCCN3CC=C(c4c[nH]c5ccc(F)cc45)CC3)c(=O)n3ccccc23)cc1
2 = COc1ccc(C(=O)Nc2ccc(OC(CCN(C)C)c3ccccc3)cc2)cc1Cl (configuration not stated)
Pick the one with the larger pKi: 1 vs 2 Choose, then provide that item's label. 2
(2: 7.80, 1: 7.52)
